B1: DYRK1B (parent)
chain: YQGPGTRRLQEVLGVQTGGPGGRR

Variants of: B1
Assay Text: protein stability index of a GFP-peptide fusion (GPS, HEK-293T) (PSI 1-6); higher = more stable;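 also: lentivirally expressed fusions sorted by FACS into six bins by GFP to DsRed ratio, PSI derived from sequencing read proportions per bin multiplied by bin number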
Test Settings: c terminus: a fixed tail appended
# if value of protein stability index reaches 3, tag label 1; if it stays below, tag label 0

Some solved entries appear below for comparison.
YQGPGTRRLQEVLGVQTGGPPGRR [G21P] :: label 1
YQGPGTRRLQEVLGVQTIGPGGRR [G18I] :: label 0

Then this variant:
Q. Say whether YQGPGTRRLCEVLGVQTGGPGGRR [Q10C] shows protein stability index of 3 or more.
A. label 0
